Reference source: patent US12497460B2

Listing of recorded ka by entry.
- test_system: T1, His9-hMSR1 (human MSR1 extracellular domain) (Homo sapiens, UniProt P21757)
- T1 construct: human MSR1 extracellular domain expressed with a N-terminal nonahistidine tag; His9 (nonahistidine) (N); purchased R&D Systems 2708-MS
- T1 sequence (P21757 77-451 limits assumed): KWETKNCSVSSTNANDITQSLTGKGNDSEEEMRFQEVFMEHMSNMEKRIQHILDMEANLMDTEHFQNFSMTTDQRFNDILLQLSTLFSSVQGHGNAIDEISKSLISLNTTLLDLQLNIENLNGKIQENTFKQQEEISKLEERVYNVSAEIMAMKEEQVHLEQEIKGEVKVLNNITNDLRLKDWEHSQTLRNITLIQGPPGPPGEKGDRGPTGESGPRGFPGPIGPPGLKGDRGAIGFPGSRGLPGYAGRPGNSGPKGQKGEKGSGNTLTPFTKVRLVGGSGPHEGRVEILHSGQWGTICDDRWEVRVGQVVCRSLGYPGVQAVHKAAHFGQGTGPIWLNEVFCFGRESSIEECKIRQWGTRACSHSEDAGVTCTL
- experiment_summary: Biacore T200 surface plasmon resonance binding kinetics of anti-MSR1 antibody-drug conjugates and parental antibodies
- recorded_conditions: 25° C.; Table 19, antibody-LXR ADCs and unconjugated antibodies
observed_property: ka (M⁻¹ s⁻¹)

molecule: H1H27731P-N297Q: one of "Twelve anti-MSR1 antibodies"; "made with an N297Q single point mutation in human Fcγ portion" (antibody, V domains shown) VH: QLQLQESGPGLVKPSETLSLTCTVSGGSISRISYYWGWIRQPPGKGLEWIGSIYDSGSTYYNPSLKSRVTISIDTSKNQFSLKLSSVTAADTAVYYCVRYSSSSAFAFDYWGQGTLVTVSS VL: DIQMTQSPSSVSASVGDRVTITCRASQGISSWLAWYQQKPGKAPKLLIYAASSLQSGVPSRFSGSGSGTDFTLTISSLQPEDFATYYCQQANSFPFTFGPGTKVDIKR
assay_result: 117000

molecule: H1H27731P-N297Q-LP1 (conjugate) VH: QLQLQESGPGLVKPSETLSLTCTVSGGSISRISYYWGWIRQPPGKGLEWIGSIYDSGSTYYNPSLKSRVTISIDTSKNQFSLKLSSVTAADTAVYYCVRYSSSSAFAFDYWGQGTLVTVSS VL: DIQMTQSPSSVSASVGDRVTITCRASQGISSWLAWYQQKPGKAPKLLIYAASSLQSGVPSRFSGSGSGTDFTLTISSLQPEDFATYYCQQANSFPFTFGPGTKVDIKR
assay_result: 128000

molecule: H1H27747P-N297Q (antibody, V domains shown) VH: QVQLVESGGAVVQPGRSLRLSCAASGFTFSYYGMHWVRQAPGKGLEWVAVISYDGSKKYYADSVKGRFTISRDNSKNTLYLQMNSLRAEDTAVYYCAKDLTVDFYYGMDVWGQGTTVTVSS VL: DIQMTQSPSSVSASVGDRVTITCRASQGISSWLAWYQQKPGKAPKLLIYATSSLQSGAPSRFSGSGSGTDFTLTISSLQPEDFATYFCQQANSFPYTFGQGTKLEIKR
assay_result: 117000

molecule: H1H27754P-N297Q: one of "Twelve anti-MSR1 antibodies"; "made with an N297Q single point mutation in human Fcγ portion" (antibody, V domains shown) VH: EVQLVESGGGLVQPGGSLRLSCAASGFTFRTYAMTWVRQAPGKGLDWVSAITGDGGNTYYADSVKGRFTISRDNSKNTLYLQMNSLRAEDTAIYYCAKDQRFSFALYYFDYWGQGTLVTVSS VL: DIQMTQSPSSVSASVGDRVTITCRASQGISSWLAWYQQKPGNAPKLLIYAAFSLQSGVPSRFSGSGSGTDFTLTISSLQPEDFATYYCQQANNFPWTFGQGTKVEIKR
assay_result: 200000
